- experiment: Pharmacokinetics in female BALB/c nude mice bearing A375 xenografts, 1 day dosing (PK and PD study): plasma, tumor and brain concentrations, AUC
- Format: in vivo
- test_conditions: mouse, plasma, po, 10 mg/kg, 10 mg/kg p.o. BID × 1 day; post 2nd dose; 48 h; read-out: Mean Concentration in Plasma ± SEM
- Source text: The concentrations of Dabrafenib, Compound 26 and Compound 141 in the treatment of female BALB/c nude mice bearing A375 xenografts are shown in Table 62-Table 72 and FIG. 52-FIG. 73.
reported_metric: concentration at 48 h (µg/mL)

INSERT INTO results (compound_structure, result) VALUES
  ('CCN(C)S(=O)(=O)Nc1ccc(F)c(Oc2ccc3ncn([C@H]4COC5(CCN(C6CC7(C6)CN(c6cc8c(cc6F)c(N6CCC(=O)NC6=O)nn8C)C7)CC5)C4)c(=O)c3c2)c1C#N', 0.0106);

====

- experiment: Pharmacokinetics in female BALB/c nude mice bearing A375 xenografts, 1 day dosing (PK and PD study): plasma, tumor and brain concentrations, AUC
- Assay type: in vivo
- test_conditions: mouse, tumor, po, 1.5 mg/kg, 1.5 mg/kg p.o. BID × 1 day; post 2nd dose; 24 h; read-out: Mean Concentration in Tumor ± SEM
reported_metric: concentration at 24 h (ng/g)

INSERT INTO measurements (compound_structure, output_unit, result) VALUES
  ('CCN(C)S(=O)(=O)Nc1ccc(F)c(Oc2ccc3ncn([C@H]4COC5(CCN(C6CC7(C6)CN(c6cc8c(cc6F)c(N6CCC(=O)NC6=O)nn8C)C7)CC5)C4)c(=O)c3c2)c1C#N', 'ng/g', 28.3);

====

Each item that follows carries a reported concentration at 12 h.
- experiment: Example 9 pharmacokinetics assay for the PK and PD study Part I, II and III (plasma, tumor, liver)
- Assay type: in vivo, BALB/c nude mice
- test_conditions: mouse, plasma, po; 10 mg/kg, p.o., single dose; 12 h; ± SEM; read-out: Mean Concentration in Plasma
reported_metric: concentration at 12 h (ng/mL)

INSERT INTO assay_data (molecule, reported_metric, result) VALUES
  ('CCN(C)S(=O)(=O)Nc1ccc(F)c(Oc2ccc3ncn(C4CC5(C4)CN(C4CCC(c6cc7c(cc6F)c(N6CCC(=O)NC6=O)nn7C)CC4)C5)c(=O)c3c2)c1C#N (single isomer, unassigned)', 'concentration at 12 h', 32.9),
  ('Cn1nc(N2CCC(=O)NC2=O)c2cc(F)c(N3CC4(CC(N5CCC6(CC5)C[C@@H](n5cnc7ccc(Oc8c(F)ccc(NS(=O)(=O)N9CC[C@@H](F)C9)c8C#N)cc7c5=O)CO6)C4)C3)cc21', 'concentration at 12 h', 733),
  ('CCN(C)S(=O)(=O)Nc1ccc(F)c(Oc2ccc3ncc(OC4CC5(CCN(C6CCC(c7cc8c(cc7F)c(N7CCC(=O)NC7=O)nn8C)CC6)CC5)C4)nc3c2)c1C#N (single isomer, unassigned)', 'concentration at 12 h', 206),
  ('CCN(C)S(=O)(=O)Nc1ccc(F)c(Oc2ccc3ncn(C4CC5(CCN(C6CC7(CCN(c8cc9c(cc8F)c(N8CCC(=O)NC8=O)nn9C)CC7)C6)CC5)C4)c(=O)c3c2)c1C#N (stereo not drawn)', 'concentration at 12 h', 1700),
  ('CO[C@H]1CCN(S(=O)(=O)Nc2ccc(F)c(Oc3ccc4ncn([C@H]5COC6(CCN(C7CC8(C7)CN(c7cc9c(cc7F)c(N7CCC(=O)NC7=O)nn9C)C8)CC6)C5)c(=O)c4c3)c2C#N)C1', 'concentration at 12 h', 5420),
  ('CO[C@@H]1CCN(S(=O)(=O)Nc2ccc(F)c(Oc3ccc4ncn([C@H]5COC6(CCN(C7CC8(C7)CN(c7cc9c(cc7F)c(N7CCC(=O)NC7=O)nn9C)C8)CC6)C5)c(=O)c4c3)c2C#N)C1', 'concentration at 12 h', 1240);

====

- tested_target: BRAF V600E (Homo sapiens, UniProt P15056+Q96SW2, V600E)
- Construct: knock-in of the HiBiT tag to the endogenous BRAF V600E locus; host or cells: A375.10 (A375 clonal line, CRISPR HiBiT knock-in at the endogenous BRAF V600E locus)
- Sequence (P15056 whole entry V600E): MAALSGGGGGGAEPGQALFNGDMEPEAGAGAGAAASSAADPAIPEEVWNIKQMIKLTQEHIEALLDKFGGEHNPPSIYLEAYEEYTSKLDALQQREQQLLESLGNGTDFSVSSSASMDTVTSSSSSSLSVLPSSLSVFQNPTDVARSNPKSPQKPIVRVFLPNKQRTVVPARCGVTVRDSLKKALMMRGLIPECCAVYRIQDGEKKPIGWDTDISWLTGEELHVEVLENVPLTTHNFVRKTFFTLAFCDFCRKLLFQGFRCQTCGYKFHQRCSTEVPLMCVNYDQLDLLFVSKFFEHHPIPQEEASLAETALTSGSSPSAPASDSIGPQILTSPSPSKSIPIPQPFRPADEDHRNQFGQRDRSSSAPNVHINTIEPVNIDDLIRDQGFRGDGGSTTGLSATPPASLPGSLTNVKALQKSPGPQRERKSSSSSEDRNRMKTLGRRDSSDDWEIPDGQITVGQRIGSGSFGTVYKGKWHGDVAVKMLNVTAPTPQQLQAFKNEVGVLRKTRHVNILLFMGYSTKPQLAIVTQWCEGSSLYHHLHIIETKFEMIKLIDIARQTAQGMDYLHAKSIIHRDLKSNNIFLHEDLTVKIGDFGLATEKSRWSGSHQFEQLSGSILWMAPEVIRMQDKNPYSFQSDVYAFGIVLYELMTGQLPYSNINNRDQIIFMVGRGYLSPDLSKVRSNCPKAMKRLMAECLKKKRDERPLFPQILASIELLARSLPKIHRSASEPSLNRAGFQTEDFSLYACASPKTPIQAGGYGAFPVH
- Sequence (Q96SW2 whole entry): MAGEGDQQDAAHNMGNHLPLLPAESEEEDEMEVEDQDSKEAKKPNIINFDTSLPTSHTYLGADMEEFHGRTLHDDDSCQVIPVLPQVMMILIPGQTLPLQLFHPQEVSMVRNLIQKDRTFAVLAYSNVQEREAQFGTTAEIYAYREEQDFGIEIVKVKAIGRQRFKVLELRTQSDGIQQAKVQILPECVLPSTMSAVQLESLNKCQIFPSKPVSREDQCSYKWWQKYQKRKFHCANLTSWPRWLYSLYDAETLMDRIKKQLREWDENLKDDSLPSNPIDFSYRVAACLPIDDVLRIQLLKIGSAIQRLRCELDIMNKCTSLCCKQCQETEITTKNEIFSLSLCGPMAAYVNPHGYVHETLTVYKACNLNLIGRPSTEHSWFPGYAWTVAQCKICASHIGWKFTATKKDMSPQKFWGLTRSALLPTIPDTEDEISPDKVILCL
- Sequence (Q16531 whole entry partner): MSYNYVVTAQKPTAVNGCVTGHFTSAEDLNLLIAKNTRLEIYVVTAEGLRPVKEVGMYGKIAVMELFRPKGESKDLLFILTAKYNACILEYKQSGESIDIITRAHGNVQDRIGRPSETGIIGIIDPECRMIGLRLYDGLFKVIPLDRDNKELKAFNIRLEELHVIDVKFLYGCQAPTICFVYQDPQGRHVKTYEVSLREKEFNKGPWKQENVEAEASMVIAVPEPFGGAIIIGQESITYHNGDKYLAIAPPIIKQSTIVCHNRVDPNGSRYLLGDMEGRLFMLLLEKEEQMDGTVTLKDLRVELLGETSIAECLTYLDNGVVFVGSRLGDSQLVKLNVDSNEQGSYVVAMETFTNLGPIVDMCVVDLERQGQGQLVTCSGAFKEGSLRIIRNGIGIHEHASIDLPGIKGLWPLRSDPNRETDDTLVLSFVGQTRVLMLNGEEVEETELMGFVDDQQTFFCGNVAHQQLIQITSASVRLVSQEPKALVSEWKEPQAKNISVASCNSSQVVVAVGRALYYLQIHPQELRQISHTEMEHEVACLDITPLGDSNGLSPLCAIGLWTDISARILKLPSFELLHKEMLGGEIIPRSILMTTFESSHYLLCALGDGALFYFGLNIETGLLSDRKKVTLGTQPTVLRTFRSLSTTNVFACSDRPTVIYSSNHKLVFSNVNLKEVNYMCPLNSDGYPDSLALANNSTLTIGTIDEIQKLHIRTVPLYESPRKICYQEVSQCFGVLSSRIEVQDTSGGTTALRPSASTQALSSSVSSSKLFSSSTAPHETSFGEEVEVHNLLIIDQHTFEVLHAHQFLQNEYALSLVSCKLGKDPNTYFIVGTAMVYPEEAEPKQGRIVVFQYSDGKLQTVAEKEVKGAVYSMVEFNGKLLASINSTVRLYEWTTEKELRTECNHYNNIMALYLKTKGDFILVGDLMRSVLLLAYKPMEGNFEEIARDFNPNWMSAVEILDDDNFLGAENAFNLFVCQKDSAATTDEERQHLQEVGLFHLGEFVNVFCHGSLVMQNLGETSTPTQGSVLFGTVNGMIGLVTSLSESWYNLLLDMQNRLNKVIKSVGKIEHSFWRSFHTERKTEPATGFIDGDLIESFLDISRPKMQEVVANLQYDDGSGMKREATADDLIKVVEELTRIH
- experiment: BRAF V600E HiBiT Degradation Assay
- Type: cell-based
- test_conditions: A375.10 cells, BRAF V600E, 6 hours; residual protein remaining; read-out: HiBiT-Degradation A375.10 BRAF 6 hours Emax
reported_metric: Emax

INSERT INTO assay_data (compound, reported_metric, result) VALUES
  ('CCN(C)S(=O)(=O)Nc1ccc(F)c(Oc2ccc3ncc(C4CC5(CCN(C6CC7(C6)CN(c6cc8c(cc6F)c(N6CCC(=O)NC6=O)nn8C)C7)CC5)C4)nc3c2)c1C#N (stereo not drawn) [Compound 177]', 'Emax', '< 50%'),
  ('CCN(C)S(=O)(=O)Nc1ccc(F)c(Oc2ccc3ncc([C@H]4COC5(CCN(C6CCC(c7ccc(NC8CCC(=O)NC8=O)cc7F)CC6)CC5)C4)nc3c2)c1C#N (single isomer, unassigned) [Compound 58]', 'Emax', '< 50%'),
  ('CO[C@H]1CCN(S(=O)(=O)Nc2ccc(F)c(Oc3ccc4ncn(C5CC6(CCN(C7CCC(c8cc9c(cc8F)c(N8CCC(=O)NC8=O)nn9C)CC7)CC6)C5)c(=O)c4c3)c2C#N)C1 (single isomer, unassigned) [Compound 103]', 'Emax', '< 50%');

====

- tested_target: BRAF V600E (Homo sapiens, UniProt P15056+Q96SW2, V600E)
- Construct: knock-in of the HiBiT tag to the endogenous BRAF V600E locus; host or cells: A375.10 (A375 clonal line, CRISPR HiBiT knock-in at the endogenous BRAF V600E locus)
- experiment: BRAF V600E HiBiT Degradation Assay
- Type: cell-based
- test_conditions: A375.10 cells, BRAF V600E, 2 hours; residual protein remaining; read-out: HiBiT-Degradation A375.10 BRAF 2 hours Emax
# Emax per record follows
reported_metric: Emax

INSERT INTO assay_data (molecule, reported_metric, result) VALUES
  ('CCN(C)S(=O)(=O)Nc1ccc(F)c(Oc2ccc3ncc(OC4CC5(C4)CN(C4CCC(c6cc7c(cc6F)c(N6CCC(=O)NC6=O)nn7C)CC4)C5)nc3c2)c1C#N (single isomer, unassigned)', 'Emax', '50 to 90%'),
  ('CCN(C)S(=O)(=O)Nc1ccc(F)c(Oc2ccc3ncc(CCC4CCN(C5CCC(c6cc7c(cc6F)c(N6CCC(=O)NC6=O)nn7C)CC5)CC4)nc3c2)c1C#N (single isomer, unassigned)', 'Emax', '50 to 90%'),
  ('CCN(C)S(=O)(=O)Nc1ccc(F)c(Oc2ccc3ncn([C@H]4COC5(CCN(C6CC(c7cc8c(cc7F)c(N7CCC(=O)NC7=O)nn8C)C6)CC5)C4)c(=O)c3c2)c1C#N (single isomer, unassigned)', 'Emax', '< 50%'),
  ('CCN(C)S(=O)(=O)Nc1ccc(F)c(Oc2ccc3ncn([C@H]4COC5(CCC(N6C7COCC6CC(c6cc8c(cc6F)c(N6CCC(=O)NC6=O)nn8C)C7)CC5)C4)c(=O)c3c2)c1C#N (single isomer, unassigned)', 'Emax', '50 to 90%');

====

- tested_target: BRAF V600E (Homo sapiens, UniProt P15056+Q96SW2, V600E)
- Construct: knock-in of the HiBiT tag to the endogenous BRAF V600E locus; host or cells: A375.10 (A375 clonal line, CRISPR HiBiT knock-in at the endogenous BRAF V600E locus)
- experiment: BRAF V600E HiBiT Degradation Assay
- Assay type: cell-based
- test_conditions: A375.10 cells, BRAF V600E, 2 hours; read-out: HiBiT-Degradation A375.10 BRAF 2 hours DC50
As shown below, each of these molecules has a reported DC50 value.
reported_metric: DC50

INSERT INTO measurements (molecule, result) VALUES
  ('CCN(C)S(=O)(=O)Nc1ccc(F)c(Oc2ccc3ncn([C@H]4COC5(C4)CN(C4CCC(c6cc7c(cc6F)c(N6CCC(=O)NC6=O)nn7C)CC4)C5)c(=O)c3c2)c1C#N (single isomer, unassigned) [Compound 235]', '1 to 10 µM'),
  ('CCN(C)S(=O)(=O)Nc1ccc(F)c(Oc2ccc3ncc([C@@H]4COC5(CCN(C6CCC(c7cc8c(cc7F)c(N7CCC(=O)NC7=O)nn8C)CC6F)CC5)C4)nc3c2)c1C#N (single isomer, unassigned) [Compound 163]', '< 1 µM'),
  ('CCN(C)S(=O)(=O)Nc1ccc(F)c(Oc2ccc3ncn(CC4(F)CCN(C5CCC(c6cc7c(cc6F)c(N6CCC(=O)NC6=O)nn7C)CC5)CC4)c(=O)c3c2)c1C#N (single isomer, unassigned) [Compound 201]', '< 1 µM'),
  ('CN(CCO)S(=O)(=O)Nc1ccc(F)c(Oc2ccc3ncn(C4CC5(CCN(C6CCC(c7cc8c(cc7F)c(N7CCC(=O)NC7=O)nn8C)CC6F)CC5)C4)c(=O)c3c2)c1C#N (single isomer, unassigned) [Compound 146]', '> 10 µM'),
  ('CCN(C)S(=O)(=O)Nc1ccc(F)c(Oc2ccc3ncn([C@H]4CO[C@@]5(CCN(C6CCC(c7cc8c(cc7F)c(N7CCC(=O)NC7=O)nn8C)CC6)C5)C4)c(=O)c3c2)c1C#N (single isomer, unassigned) [Compound 292]', '< 1 µM'),
  ('CCN(C)S(=O)(=O)Nc1ccc(F)c(Oc2ccc3ncn([C@@H]4C[C@@H]5CN(C6CCC(c7cc8c(cc7F)c(N7CCC(=O)NC7=O)nn8C)CC6)C[C@@H]5C4)c(=O)c3c2)c1C#N (single isomer, unassigned) [Compound 17]', '< 1 µM'),
  ('CCN(C)S(=O)(=O)Nc1ccc(F)c(Oc2ccc3ncn([C@H]4COC5(C4)CN(C4CCC(c6cc7c(cc6F)c(N6CCC(=O)NC6=O)nn7C)CC4)C5)c(=O)c3c2)c1C#N (single isomer, unassigned) [Compound 236]', '< 1 µM'),
  ('CCN(C)S(=O)(=O)Nc1ccc(F)c(Oc2ccc3ncn([C@H]4COC5(CCN(CC6(O)CCN(c7cc8c(cc7F)c(N7CCC(=O)NC7=O)nn8C)CC6)CC5)C4)c(=O)c3c2)c1C#N [Compound 230]', '< 1 µM'),
  ('CN(CCO)S(=O)(=O)Nc1ccc(F)c(Oc2ccc3ncn([C@H]4COC5(CCC(N6CCC(c7cc8c(cc7F)c(N7CCC(=O)NC7=O)nn8C)C(F)(F)C6)CC5)C4)c(=O)c3c2)c1C#N (single isomer, unassigned) [Compound 214]', '< 1 µM'),
  ('CCN(C)S(=O)(=O)Nc1ccc(F)c(Oc2ccc3ncc([C@H]4COC5(CCN(C6CCC(c7cc8c(cc7F)c(N7CCC(=O)NC7=O)nn8C)CC6F)CC5)C4)nc3c2)c1C#N (single isomer, unassigned) [Compound 160]', '< 1 µM'),
  ('CN(CCO)S(=O)(=O)Nc1ccc(F)c(Oc2ccc3ncn(C4CC5(CCN(C6CCC(c7ccc(NC8CCC(=O)NC8=O)cc7F)CC6)CC5)C4)c(=O)c3c2)c1C#N (single isomer, unassigned) [Compound 79]', '< 1 µM'),
  ('CCN(C)S(=O)(=O)Nc1ccc(F)c(Oc2ccc3ncn(C4CC5(CCN(C6CC7(C6)CN(c6cc8c(cc6F)c(N6CCC(=O)NC6=O)nn8C)C7)CC5)C4)c(=O)c3c2)c1C#N (centres unmarked) [Compound 141]', '< 1 µM'),
  ('CO[C@@H]1CCN(S(=O)(=O)Nc2ccc(F)c(Oc3ccc4ncc(C5CC6(CCN(C7CCC(c8cc9c(cc8F)c(N8CCC(=O)NC8=O)nn9C)CC7)CC6)C5)nc4c3)c2C#N)C1 (single isomer, unassigned) [Compound 285]', '< 1 µM'),
  ('CCN(C)S(=O)(=O)Nc1ccc(F)c(Oc2ccc3ncc(CCC4CCN(C5CCC(c6cc7c(cc6F)c(N6CCC(=O)NC6=O)nn7C)CC5)CC4)nc3c2)c1C#N (single isomer, unassigned) [Compound 128]', '> 10 µM'),
  ('CCN(C)S(=O)(=O)Nc1ccc(F)c(Oc2ccc3ncn(C4CC5(CCN(C6CCN(c7cc8c(cc7F)c(N7CCC(=O)NC7=O)nn8C)CC6)C5)C4)c(=O)c3c2)c1C#N (single isomer, unassigned) [Compound 307]', '1 to 10 µM'),
  ('CCN(C)S(=O)(=O)Nc1ccc(F)c(Oc2ccc3ncn([C@H]4COC5(CCC(N6CC7(CN(c8ccc(NC9CCC(=O)NC9=O)cc8F)C7)C6)CC5)C4)c(=O)c3c2)c1C#N (some centres unmarked) [Compound 30]', '< 1 µM'),
  ('CCN(C)S(=O)(=O)Nc1ccc(F)c(Oc2ccc3ncc([C@@H]4COC5(CCN(C6CC7(C6)CN(c6cc8c(cc6F)c(N6CCC(=O)NC6=O)nn8C)C7)CC5)C4)nc3c2)c1C#N [Compound 161]', '> 10 µM');
